For each entry below, report its log10(Ki) value.
measured.target: Sodium-dependent dopamine transporter (Rattus norvegicus, UniProt P23977)
Sequence (P23977 whole entry): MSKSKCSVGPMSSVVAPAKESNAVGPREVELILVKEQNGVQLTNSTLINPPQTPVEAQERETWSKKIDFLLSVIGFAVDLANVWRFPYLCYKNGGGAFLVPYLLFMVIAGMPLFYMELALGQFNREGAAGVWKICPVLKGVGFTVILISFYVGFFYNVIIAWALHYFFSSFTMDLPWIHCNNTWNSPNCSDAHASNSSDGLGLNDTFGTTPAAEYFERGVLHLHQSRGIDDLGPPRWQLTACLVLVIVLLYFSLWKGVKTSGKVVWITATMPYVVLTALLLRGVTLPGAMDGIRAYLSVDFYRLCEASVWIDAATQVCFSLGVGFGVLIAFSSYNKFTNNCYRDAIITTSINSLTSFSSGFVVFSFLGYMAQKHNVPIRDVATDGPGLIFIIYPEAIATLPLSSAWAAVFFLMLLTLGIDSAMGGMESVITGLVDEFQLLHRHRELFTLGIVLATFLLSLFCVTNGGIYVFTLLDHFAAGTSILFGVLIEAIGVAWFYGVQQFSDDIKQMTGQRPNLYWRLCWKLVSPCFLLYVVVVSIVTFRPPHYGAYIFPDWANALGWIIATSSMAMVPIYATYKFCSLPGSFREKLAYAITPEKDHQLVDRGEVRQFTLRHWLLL
experiment.notes: Radioligand Binding Assay
recorded.conditions: pH 7.4; 4 °C
Plainly stated, the numbers are log10 of Ki given in nM.

Solved entries (count: 3):
> print(dat)
                                   molecule  readout.label  measured.number
1  C=C(CCN1CCN(CCOC(c2ccccc2)c2ccccc2)CC1)c1ccccc1      log10(Ki)             1.48
2  CO[C@H](Cc1ccccc1)CN1CCN(CCOC(c2ccc(F)cc2)c2ccc(F)cc2)CC1      log10(Ki)             1.43
3  Fc1ccc(C(OCCN2CCN(C[C@@H](F)Cc3ccccc3)CC2)c2ccc(F)cc2)cc1      log10(Ki)             0.43

# map each molecule to its log10(Ki)
1. Fc1ccc(C(OCCN2CCN(C[C@H](F)Cc3ccccc3)CC2)c2ccc(F)cc2)cc1
2. N[C@@H](Cc1ccccc1)CN1CCN(CCOC(c2ccc(F)cc2)c2ccc(F)cc2)CC1
3. C[C@@H](Cc1ccccc1)CN1CCN(CCOC(c2ccc(F)cc2)c2ccc(F)cc2)CC1
4. N[C@H](Cc1ccccc1)CN1CCN(CCOC(c2ccc(F)cc2)c2ccc(F)cc2)CC1

Result:
1. 1.34
2. 1.59
3. 1.23
4. 1.30

# map each molecule to its log10(Ki)
1. CC(O)(CCN1CCN(CCOC(c2ccccc2)c2ccccc2)CC1)c1ccccc1 (centres undefined)
2. C=C(CCN1CCN(CCOC(c2ccc(F)cc2)c2ccc(F)cc2)CC1)c1ccccc1

Result:
1. 0.85
2. 1.26

* * *

For each entry below, report its pKi value.
measured.target: Sodium-dependent dopamine transporter (Rattus norvegicus, UniProt P23977)
experiment.notes: Radioligand Binding Assay
recorded.conditions: pH 7.4; 4 °C
Numbers only, as −log10 of the molar value.

# map each compound to its pKi
1. C[C@H](Cc1ccccc1)CN1CCN(CCOC(c2ccc(F)cc2)c2ccc(F)cc2)CC1
2. CC(O)(CCN1CCN(CCOC(c2ccc(F)cc2)c2ccc(F)cc2)CC1)c1ccccc1 (stereo not drawn)
3. CO[C@@H](Cc1ccccc1)CN1CCN(CCOC(c2ccc(F)cc2)c2ccc(F)cc2)CC1

Result:
7.77
8.40
7.54

* * *

For each entry below, report its Ki value.
measured.target: Sodium-dependent dopamine transporter (Rattus norvegicus)
experiment.notes: Radioligand Binding Assay
Give bare numbers, in nM.

> print(dat)
                                   molecule  measured.number
1  CC(O)(Cc1ccccc1)CN1CCN(CCOC(c2ccccc2)c2ccccc2)CC1 (stereo not given)              150

# map each molecule to its Ki
1. FC[C@@H](Cc1ccccc1)N1CCN(CCOC(c2ccc(F)cc2)c2ccc(F)cc2)CC1
2. C=C(Cc1ccccc1)CN1CCN(CCOC(c2ccccc2)c2ccccc2)CC1
3. O=C(CN1CCN(CCOC(c2ccccc2)c2ccccc2)CC1)c1ccccc1
4. O=C(Cc1ccccc1)CN1CCN(CCOC(c2ccccc2)c2ccccc2)CC1
5. CC(O)(Cc1ccccc1)CN1CCN(CCOC(c2ccc(F)cc2)c2ccc(F)cc2)CC1 (stereo not given)
6. O=C(Cc1ccccc1)CN1CCN(CCOC(c2ccc(F)cc2)c2ccc(F)cc2)CC1
7. C=C(Cc1ccccc1)CN1CCN(CCOC(c2ccc(F)cc2)c2ccc(F)cc2)CC1
8. O=C(CN1CCN(CCOC(c2ccc(F)cc2)c2ccc(F)cc2)CC1)c1ccccc1

Result:
1. 110
2. 410
3. 450
4. 10
5. 57
6. 6.5
7. 100
8. 54

Problem: Request the reported Ki associated with `FC[C@H](Cc1ccccc1)N1CCN(CCOC(c2ccc(F)cc2)c2ccc(F)cc2)CC1`
Result: 140
